biological target: Kappa-type opioid receptor (Homo sapiens); format: functional
Sequence (P41145 whole entry): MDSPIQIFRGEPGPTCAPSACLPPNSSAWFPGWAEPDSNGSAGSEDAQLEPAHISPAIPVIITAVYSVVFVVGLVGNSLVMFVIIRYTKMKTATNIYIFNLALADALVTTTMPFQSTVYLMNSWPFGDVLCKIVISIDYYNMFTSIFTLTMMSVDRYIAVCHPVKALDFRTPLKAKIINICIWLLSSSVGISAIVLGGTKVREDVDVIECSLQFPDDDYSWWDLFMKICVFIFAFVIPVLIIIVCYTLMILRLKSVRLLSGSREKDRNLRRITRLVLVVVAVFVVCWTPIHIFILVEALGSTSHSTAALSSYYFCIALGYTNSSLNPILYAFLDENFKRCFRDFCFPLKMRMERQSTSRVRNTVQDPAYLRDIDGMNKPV
recorded-endpoint: EC50 (µM)
Give the quantity in µM, number only.

# value lookup — system Kappa-type opioid receptor (Homo sapiens), readout EC50, item Cc1ccc(C)c(N2CCN(C(=O)C(Cc3ccccc3)n3cccc3)CC2)c1 (stereo unspecified)
4.27

* * *

target: Heat shock factor protein 1 (Mus musculus, UniProt P38532); assay: HSF1 potentiators in luciferase reporter cells, confirmation, cell-based, NIH3T3, luminescence, dose retest (AID 435004); type: functional;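 also: stress induced by proteasome inhibitor MG132 added 30 min after compound; luciferase reporter driven by HSF1 response element in NIH3T3 cells; actives raise luminescence as potentiators of the MG132 stress response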
Sequence (P38532 whole entry): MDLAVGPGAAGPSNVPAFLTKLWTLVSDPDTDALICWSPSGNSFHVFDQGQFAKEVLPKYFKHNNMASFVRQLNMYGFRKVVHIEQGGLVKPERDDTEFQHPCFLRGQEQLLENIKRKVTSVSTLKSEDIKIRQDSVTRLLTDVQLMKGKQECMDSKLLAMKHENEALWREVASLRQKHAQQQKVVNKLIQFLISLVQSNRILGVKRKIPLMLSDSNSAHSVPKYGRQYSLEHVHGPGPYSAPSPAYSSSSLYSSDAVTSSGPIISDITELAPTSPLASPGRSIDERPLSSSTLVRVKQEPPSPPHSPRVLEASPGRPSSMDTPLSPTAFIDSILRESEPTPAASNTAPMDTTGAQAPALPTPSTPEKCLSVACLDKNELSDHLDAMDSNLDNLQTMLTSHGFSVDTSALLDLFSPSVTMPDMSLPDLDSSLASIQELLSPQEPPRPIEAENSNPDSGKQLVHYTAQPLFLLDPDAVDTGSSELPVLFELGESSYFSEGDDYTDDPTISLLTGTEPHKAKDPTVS
Active and inactive are the calls of the source.
What EC50 was measured for each of the following?

Fill in: EC50 of `O=[N+]([O-])c1cccnc1S(=O)(=O)c1ccccc1` is ___
11.9 µM (active)

Fill in: EC50 of Cc1ccc(CC2SC(N=C(N)N)=NC2=O)cc1 (stereo not drawn) is ___
> 260 µM (inactive)

Fill in: EC50 of CC(Sc1nc(-c2ccccc2)cc(C(F)(F)F)n1)C(=O)Nc1sc2c(c1C#N)CCC2 (stereo not drawn) is ___
> 260 µM (inactive)

Fill in: EC50 of `CN1CCC(=NNc2ccc(S(=O)(=O)N3CCOCC3)cc2[N+](=O)[O-])CC1` is ___
> 260 µM (inactive)

Fill in: EC50 of `Cc1nonc1OCCNCCNc1ccc([N+](=O)[O-])cc1Cl` is ___
> 260 µM (inactive)

Fill in: EC50 of `COc1cc(NC(=O)COC(=O)c2ccc(C)c(S(=O)(=O)N3CCCCC3)c2)c(C)cc1[N+](=O)[O-]` is ___
> 260 µM (inactive)

Fill in: EC50 of `N#Cc1ccc(OCCN2CCc3ccccc3C2)cc1` is ___
> 260 µM (inactive)

Fill in: EC50 of `O=S1(=O)Nc2c(ccc3cccnc23)-c2ccccc21` is ___
2.76 µM (active)

Fill in: EC50 of `Cc1cccc(N2CCN(c3cccc(C)c3)C2c2cccnc2)c1` is ___
> 260 µM (inactive)

Fill in: EC50 of `O=C(Nc1cccn(Cc2c(Cl)cccc2Cl)c1=O)c1ccccc1Cl` is ___
> 260 µM (inactive)

Fill in: EC50 of `Cc1ccc(-c2nnn[nH]2)cc1` is ___
> 260 µM (inactive)

Fill in: EC50 of O=C(NCC1CCCO1)c1nn2c(C(F)(F)F)cc(-c3cc(Br)cs3)nc2c1Br (stereo not drawn) is ___
> 260 µM (inactive)

Fill in: EC50 of `NC(=O)c1nn(-c2ccccc2)nc1NC(=O)CN1CCCCC1` is ___
> 260 µM (inactive)

* * *

molecular target: Calpain-2 catalytic subunit (Sus scrofa, UniProt P43367); assay: pig calpain II inhibitor potency, dose response, biochemical, fluorogenic peptide substrate (AID 1420); type: functional
Sequence (P43367 whole entry): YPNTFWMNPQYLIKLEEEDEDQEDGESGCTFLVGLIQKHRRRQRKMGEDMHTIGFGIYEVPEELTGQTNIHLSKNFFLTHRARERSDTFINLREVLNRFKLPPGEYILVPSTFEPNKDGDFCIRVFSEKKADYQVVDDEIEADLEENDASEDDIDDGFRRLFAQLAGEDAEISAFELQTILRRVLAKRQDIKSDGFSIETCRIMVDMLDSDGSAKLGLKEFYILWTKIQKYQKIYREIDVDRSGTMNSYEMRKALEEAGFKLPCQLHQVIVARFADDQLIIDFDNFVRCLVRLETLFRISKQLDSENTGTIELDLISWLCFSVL
What IC50 was measured for each of the following?

Fill in: IC50 of `CN(C)S(=O)(=O)c1ccc2c(c1)nc(CCC(=O)NCc1ccc(Cl)cc1)n2C` is ___
6.82 µM (not active)

Fill in: IC50 of `O=C(Nc1ccc(F)cc1)C(=O)c1c(O)[nH]c2ccc([N+](=O)[O-])cc12` is ___
> 50 µM (not active)

Fill in: IC50 of Oc1ccccc1CN(Cc1ccco1)CC(O)COCc1ccc(Cl)cc1 (stereo unspecified) is ___
7.83 µM (not active)

Fill in: IC50 of O=C(O)CC1S/C(=N/N=C/c2ccc(Br)cc2)N(c2ccccc2)C1=O (stereo unspecified) is ___
9.55 µM (not active)

Fill in: IC50 of `O=C(CSc1ccc2nnc(-c3ccncc3)n2n1)Nc1nccs1` is ___
> 50 µM (not active)

Fill in: IC50 of `CSCc1cc(N2CCOCC2)nc(SCc2ccc(Cl)cc2Cl)n1` is ___
3.57 µM (not active)

Fill in: IC50 of `Cc1ccccc1Nc1scc(-c2ccc(Cl)cc2)[n+]1-c1ccccc1C` is ___
> 50 µM (not active)

Fill in: IC50 of `CC1CCN(Cc2cnc(Cl)s2)CC1` is ___
1.78 µM (not active)

Fill in: IC50 of `CC(C)CCNC(=O)NC(=O)CSc1nnc(-c2ccccc2Br)o1` is ___
> 50 µM (not active)

Fill in: IC50 of `O=C(Nc1ccc(OC(=O)c2ccccc2)c(-c2nc3ccccc3s2)c1)c1ccccc1` is ___
18.5 µM (not active)

Fill in: IC50 of CC1(C)C(=O)OC(c2c(F)c(F)c(F)c(F)c2F)C2(CCCCC2)C1=O (stereo unspecified) is ___
4.17 µM (not active)

* * *

molecular target: Small ubiquitin-related modifier 1 (Homo sapiens, UniProt P63165); experiment: inhibitors of SUMO1 partner interactions, dose response, biochemical, FRET (AID 624383); assay type: functional; conditions: read-out: IC50_Mean
Sequence (P63165 whole entry): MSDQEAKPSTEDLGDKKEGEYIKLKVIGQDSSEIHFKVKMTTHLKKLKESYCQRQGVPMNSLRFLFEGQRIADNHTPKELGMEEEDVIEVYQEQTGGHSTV
Calls of active or inactive are those of the source.
recorded-endpoint: IC50

Fill in: IC50 of `O=C(Cc1cc(=O)oc2cc(O)ccc12)NN=Cc1ccc(N(CCCl)CCCl)cc1` is ___
8.3 µM (active)

Fill in: IC50 of C=C(C)C(=O)Nc1cccc(C2=NOC3(C2)C[C@@H](C(N)=O)N(C(=O)c2cc([N+](=O)[O-])cc([N+](=O)[O-])c2C)C3)c1 (some centres undefined) is ___
8.54 µM (active)

Fill in: IC50 of `COc1ccc(Cl)cc1Nc1nc(-c2sc(NC(=O)C(C)(C)C)nc2C)cs1` is ___
7.99 µM (active)

Fill in: IC50 of `COc1ccc(Cl)cc1Nc1nnc(-c2ccncc2)s1` is ___
4.83 µM (active)

* * *

molecular target: Cytochrome P450 3A4 (Homo sapiens, UniProt P08684); conditions: Potency;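 also: confirmatory qHTS run detecting inhibitors and substrates of CYP3A4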
Sequence (P08684 whole entry): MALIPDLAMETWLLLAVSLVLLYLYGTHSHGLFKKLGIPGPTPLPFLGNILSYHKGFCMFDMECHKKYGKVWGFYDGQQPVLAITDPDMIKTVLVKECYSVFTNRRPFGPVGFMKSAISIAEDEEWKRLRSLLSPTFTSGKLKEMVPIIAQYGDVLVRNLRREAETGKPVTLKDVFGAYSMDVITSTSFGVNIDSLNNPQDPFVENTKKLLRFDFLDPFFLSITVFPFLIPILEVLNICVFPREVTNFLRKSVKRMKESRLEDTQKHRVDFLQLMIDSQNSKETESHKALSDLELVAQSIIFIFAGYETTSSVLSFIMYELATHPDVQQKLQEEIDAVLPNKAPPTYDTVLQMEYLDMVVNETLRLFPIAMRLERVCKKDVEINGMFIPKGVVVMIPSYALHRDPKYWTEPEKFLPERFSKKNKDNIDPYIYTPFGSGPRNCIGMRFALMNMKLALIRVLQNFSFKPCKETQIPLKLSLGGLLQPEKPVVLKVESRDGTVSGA
recorded-endpoint: AC50

Fill in: AC50 of `COC(=O)[C@@H]1C[C@@]2(O)[C@H](O)[C@H](O)[C@H](O)C[C@H]2N1Cc1c(F)cccc1Cl` is ___
25.1 µM (inconclusive)

Fill in: AC50 of `O=C(O)CN(CC(=O)O)Cc1cc2c(-c3ccccc3C(=O)O)c3cc(CN(CC(=O)O)CC(=O)O)c(=O)cc-3oc2cc1O` is ___
20 µM (inconclusive)

Fill in: AC50 of COCCNC(=O)[C@H](C)/C=C/C(NC(=O)OCc1ccccc1)c1ccc(C(=O)OC)cc1 (some centres undefined) is ___
7.94 µM (inconclusive)

Fill in: AC50 of `CN(C)c1ccc(/C=C2\CCCN=C2c2cccnc2)cc1` is ___
10 µM (inconclusive)

* * *

What EC50 was measured for each of the following?
biological target: RNA-binding protein pos-1 (Caenorhabditis elegans, UniProt G5EF15); assay: inhibitors of POS-1/mex-3 RNA binding, dose response, biochemical, fluorescence polarization (AID 1964);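 also: purified POS-1 fused to maltose binding protein made in E. coli; potency of compounds blocking POS-1 binding to fluorescent RNA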
Sequence (G5EF15 whole entry, the tested form may be a part): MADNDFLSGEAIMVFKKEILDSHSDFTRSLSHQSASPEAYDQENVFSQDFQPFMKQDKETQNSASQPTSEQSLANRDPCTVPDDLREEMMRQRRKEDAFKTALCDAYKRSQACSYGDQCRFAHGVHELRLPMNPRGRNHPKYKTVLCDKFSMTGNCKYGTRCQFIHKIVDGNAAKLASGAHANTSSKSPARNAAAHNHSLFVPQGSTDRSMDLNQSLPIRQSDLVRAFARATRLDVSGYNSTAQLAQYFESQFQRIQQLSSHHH
Calls of active or inactive are those of the source.

Fill in: EC50 of `Oc1[nH]c(S)nc2nc(S)nc1-2` is ___
32 µM (active)

Fill in: EC50 of `CCN(CC)C(=O)CSc1nnc2nnc3cc(Cl)ccc3n12` is ___
23.2 µM (active)

Fill in: EC50 of C=CCSc1nnc(N2C(=O)C(O)=C(C(=O)c3ccco3)C2c2ccccc2F)s1 (centres undefined) is ___
48.3 µM (active)

Fill in: EC50 of CN1CCN(/C=N/C2=C(C#N)C(c3ccccc3)C3=C(CC(C)(C)CC3=O)O2)CC1 (centres undefined) is ___
> 300 µM (not active)

* * *

Target: Insulin-degrading enzyme (Homo sapiens, UniProt P14735)
Sequence (P14735 whole entry): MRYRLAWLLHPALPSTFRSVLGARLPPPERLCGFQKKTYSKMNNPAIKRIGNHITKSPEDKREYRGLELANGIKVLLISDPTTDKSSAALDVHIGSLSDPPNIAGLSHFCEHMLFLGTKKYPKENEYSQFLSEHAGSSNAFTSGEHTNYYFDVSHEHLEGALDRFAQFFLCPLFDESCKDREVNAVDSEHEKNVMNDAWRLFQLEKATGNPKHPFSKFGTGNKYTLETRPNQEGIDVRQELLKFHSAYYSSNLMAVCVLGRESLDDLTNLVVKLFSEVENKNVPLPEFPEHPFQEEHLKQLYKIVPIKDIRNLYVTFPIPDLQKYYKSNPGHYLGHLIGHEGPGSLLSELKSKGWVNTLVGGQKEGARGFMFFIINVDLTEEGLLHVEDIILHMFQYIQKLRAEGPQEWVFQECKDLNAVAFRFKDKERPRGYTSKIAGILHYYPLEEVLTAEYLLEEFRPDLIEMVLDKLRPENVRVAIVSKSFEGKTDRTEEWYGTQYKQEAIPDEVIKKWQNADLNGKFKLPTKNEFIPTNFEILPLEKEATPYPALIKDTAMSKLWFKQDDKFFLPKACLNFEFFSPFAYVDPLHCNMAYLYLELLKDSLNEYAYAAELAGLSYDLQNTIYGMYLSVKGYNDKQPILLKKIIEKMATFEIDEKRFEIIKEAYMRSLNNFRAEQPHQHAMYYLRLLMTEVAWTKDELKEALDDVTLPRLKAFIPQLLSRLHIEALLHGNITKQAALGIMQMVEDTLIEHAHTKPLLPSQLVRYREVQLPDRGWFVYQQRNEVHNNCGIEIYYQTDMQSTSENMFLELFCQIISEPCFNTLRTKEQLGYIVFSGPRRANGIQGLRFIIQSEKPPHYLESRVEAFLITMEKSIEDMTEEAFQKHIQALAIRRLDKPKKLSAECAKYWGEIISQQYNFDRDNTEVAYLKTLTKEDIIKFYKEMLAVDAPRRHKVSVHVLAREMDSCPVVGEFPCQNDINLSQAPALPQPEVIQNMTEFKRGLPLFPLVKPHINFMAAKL
Assay: activators of endogenous IDE in HEK cells, dose response, cell-based, fluorescence polarization (AID 588439)
Assay type: functional
Calls of active or inactive are those of the source.
recorded-endpoint: EC50

Fill in: EC50 of N#CC(C#N)=C1C=C2C=C(N3CCCCCC3)CCC2CC1 (centres undefined) is ___
> 54.7 µM (inactive)

Fill in: EC50 of `Cc1[nH]c(=O)[nH]c1C(=O)CCCCC(=O)O` is ___
12.2 µM (inactive)

Fill in: EC50 of `O=C1C=C(c2cccc3c2sc2ccccc23)C[C@@H](c2ccc(Cl)cc2)C1` is ___
> 54.7 µM (inactive)

Fill in: EC50 of COc1ccc(OCc2n(CC(=O)OC3CC(C)CCC3C(C)C)c3ccccc3[n+]2C)cc1.[Cl-] (centres undefined) is ___
15.5 µM (inactive)

Data provenance is ChEMBL document CHEMBL1201862.
